target-or-system: Metabotropic glutamate receptor 5 (Homo sapiens)
Sequence (P41594 whole entry): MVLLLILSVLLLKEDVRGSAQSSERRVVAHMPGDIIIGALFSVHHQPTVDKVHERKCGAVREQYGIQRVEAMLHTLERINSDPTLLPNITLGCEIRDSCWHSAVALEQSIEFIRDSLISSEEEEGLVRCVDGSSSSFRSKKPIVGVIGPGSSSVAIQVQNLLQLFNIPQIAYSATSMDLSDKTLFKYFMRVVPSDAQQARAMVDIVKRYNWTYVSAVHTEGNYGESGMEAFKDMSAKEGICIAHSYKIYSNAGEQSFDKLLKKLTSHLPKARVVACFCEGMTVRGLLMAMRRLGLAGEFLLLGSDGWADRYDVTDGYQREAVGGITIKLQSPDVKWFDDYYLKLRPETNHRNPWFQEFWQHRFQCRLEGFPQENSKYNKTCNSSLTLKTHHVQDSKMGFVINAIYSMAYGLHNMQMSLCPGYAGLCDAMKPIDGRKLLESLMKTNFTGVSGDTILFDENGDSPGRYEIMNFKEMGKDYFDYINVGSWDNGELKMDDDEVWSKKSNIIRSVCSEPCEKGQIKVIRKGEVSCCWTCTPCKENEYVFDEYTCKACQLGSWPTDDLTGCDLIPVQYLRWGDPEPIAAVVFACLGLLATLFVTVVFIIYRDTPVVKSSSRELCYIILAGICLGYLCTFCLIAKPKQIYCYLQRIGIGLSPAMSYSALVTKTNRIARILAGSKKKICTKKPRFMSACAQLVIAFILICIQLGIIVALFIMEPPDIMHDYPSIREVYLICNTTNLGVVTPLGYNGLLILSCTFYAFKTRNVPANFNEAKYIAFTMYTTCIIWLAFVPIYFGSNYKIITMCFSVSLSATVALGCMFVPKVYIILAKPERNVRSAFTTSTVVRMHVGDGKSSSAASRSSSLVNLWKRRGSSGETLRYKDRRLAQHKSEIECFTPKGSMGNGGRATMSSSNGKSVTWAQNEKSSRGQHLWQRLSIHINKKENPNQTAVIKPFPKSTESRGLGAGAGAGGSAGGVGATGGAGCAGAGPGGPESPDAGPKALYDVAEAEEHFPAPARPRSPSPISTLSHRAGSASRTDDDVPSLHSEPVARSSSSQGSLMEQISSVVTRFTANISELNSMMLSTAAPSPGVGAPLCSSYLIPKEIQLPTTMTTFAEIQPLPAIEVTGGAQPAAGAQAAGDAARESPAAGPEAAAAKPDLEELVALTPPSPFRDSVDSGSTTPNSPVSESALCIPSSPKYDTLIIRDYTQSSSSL
procedure-details: Negative allosteric modulator activity against human mGluR5 expressed in HEK293 cells assessed as inhibition of glutamate-induced inositol phosphate accumulation by IP-one HTRF assay
recorded-metric: pIC50
pIC50 is defined as minus the log10 of a concentration measured in mol/L.

**Query** Look up pIC50 for this molecule: Cc1ccc(Nc2ncc([C@H](NC(=O)c3nccs3)C3CCC3)cc2Cl)cn1
**Result** 8.03

**Query** Look up pIC50 for this molecule: CCC[C@@H](NC(=O)c1nccs1)c1cnc(Nc2ccc(C)nc2)c(Cl)c1
**Result** 8.09

**Query** Look up pIC50 for this molecule: CCCN(Cc1cnc(Nc2ccc(C)nc2)c(Cl)c1)C(=O)c1nccs1
**Result** 6.23

**Query** Look up pIC50 for this molecule: CCC[C@@H](NC(=O)c1nccs1)c1cnc(Nc2cnc(C)s2)c(Cl)c1
**Result** 7.22

**Query** Look up pIC50 for this molecule: Cc1ccc(Nc2ncc([C@@H](Cc3ccccc3)NC(=O)c3nccs3)cc2Cl)cn1
**Result** 7.26

**Query** Look up pIC50 for this molecule: CCC[C@@H](NC(=O)c1nc(C)cs1)c1cnc(Nc2ccc(C)nc2)c(Cl)c1
**Result** 8.00

**Query** Look up pIC50 for this molecule: C=CC[C@@H](NC(=O)c1nccs1)c1cnc(Nc2ccc(C)nc2)c(Cl)c1
**Result** 8.62

**Query** Look up pIC50 for this molecule: Cc1ccc(Nc2ncc([C@H](NC(=O)c3nccs3)C3CCCCC3)cc2Cl)cn1
**Result** 7.42

**Query** Look up pIC50 for this molecule: CCC[C@@H](NC(=O)c1cocn1)c1cnc(Nc2ccc(C)nc2)c(Cl)c1
**Result** 7.63

**Query** Look up pIC50 for this molecule: CCCC[C@@H](NC(=O)c1nccs1)c1cnc(Nc2ccc(C)nc2)c(Cl)c1
**Result** 7.51

**Query** Look up pIC50 for this molecule: CC[C@@H](NC(=O)c1nccs1)c1cnc(Nc2ccc(C)nc2)c(Cl)c1
**Result** 7.81

**Query** Look up pIC50 for this molecule: CCC[C@@H](NC(=O)c1nccs1)c1cnc(Nc2cccnc2)c(Cl)c1
**Result** 7.15

**Query** Look up pIC50 for this molecule: Cc1ccc(Nc2ncc([C@H](NC(=O)c3nccs3)C(C)(C)C)cc2Cl)cn1
**Result** 7.51

**Query** Look up pIC50 for this molecule: C/C=C/C[C@@H](NC(=O)c1nccs1)c1cnc(Nc2ccc(C)nc2)c(Cl)c1
**Result** 8.06

**Query** Look up pIC50 for this molecule: Cc1ccc(Nc2ncc(C3CCCN3C(=O)c3nccs3)cc2Cl)cn1 (stereo not given)
**Result** 6.74

**Query** Look up pIC50 for this molecule: Cc1ccc(Nc2ncc([C@@H](NC(=O)c3nccs3)C(C)C)cc2Cl)cn1
**Result** 5.98

**Query** Look up pIC50 for this molecule: CCC[C@@H](NC(=O)c1ccccn1)c1cnc(Nc2ccc(C)nc2)c(Cl)c1
**Result** 7.56

**Query** Look up pIC50 for this molecule: CCCC(NC(=O)c1nccs1)c1cnc(Nc2ccc(C)nc2)c(Cl)c1 (stereo not given)
**Result** 7.54

**Query** Look up pIC50 for this molecule: CCC[C@@H](NC(=O)c1cscn1)c1cnc(Nc2ccc(C)nc2)c(Cl)c1
**Result** 7.51

**Query** Look up pIC50 for this molecule: CCC[C@@H](NC(=O)c1nccs1)c1cnc(Nc2ccc(F)nc2)c(Cl)c1
**Result** 7.89

**Query** Look up pIC50 for this molecule: Cc1ccc(Nc2ncc([C@H](NC(=O)c3nccs3)C3CCCC3)cc2Cl)cn1
**Result** 7.78

**Query** Look up pIC50 for this molecule: CCC[C@@H](NC(=O)c1nccs1)c1cnc(Nc2ccc(OC)nc2)c(Cl)c1
**Result** 7.88

**Query** Look up pIC50 for this molecule: CCC[C@@H](NC(=O)c1nccs1)c1cnc(Nc2cnc(C)nc2)c(Cl)c1
**Result** 7.36

**Query** Look up pIC50 for this molecule: Cc1ccc(Nc2ncc([C@H](NC(=O)c3nccs3)C3CC3)cc2Cl)cn1
**Result** 8.01

**Query** Look up pIC50 for this molecule: CCC[C@H](NC(=O)c1nccs1)c1cnc(Nc2ccc(C)nc2)c(Cl)c1
**Result** 6.01

**Query** Look up pIC50 for this molecule: Cc1ccc(Nc2ncc([C@H](NC(=O)c3nccs3)C(C)C)cc2Cl)cn1
**Result** 8.12

**Query** Look up pIC50 for this molecule: COC[C@H](NC(=O)c1nccs1)c1cnc(Nc2ccc(C)nc2)c(Cl)c1
**Result** 7.25

**Query** Look up pIC50 for this molecule: CCC[C@@H](NC(=O)c1ncco1)c1cnc(Nc2ccc(C)nc2)c(Cl)c1
**Result** 7.37
